Molecular target: human ornithine aminotransferase (hOAT) (Homo sapiens, UniProt P04181)
Construct: gene OAT; t-hOAT expressed as MBP fusion, MBP tag removed
Sequence (P04181 26-439 limits assumed): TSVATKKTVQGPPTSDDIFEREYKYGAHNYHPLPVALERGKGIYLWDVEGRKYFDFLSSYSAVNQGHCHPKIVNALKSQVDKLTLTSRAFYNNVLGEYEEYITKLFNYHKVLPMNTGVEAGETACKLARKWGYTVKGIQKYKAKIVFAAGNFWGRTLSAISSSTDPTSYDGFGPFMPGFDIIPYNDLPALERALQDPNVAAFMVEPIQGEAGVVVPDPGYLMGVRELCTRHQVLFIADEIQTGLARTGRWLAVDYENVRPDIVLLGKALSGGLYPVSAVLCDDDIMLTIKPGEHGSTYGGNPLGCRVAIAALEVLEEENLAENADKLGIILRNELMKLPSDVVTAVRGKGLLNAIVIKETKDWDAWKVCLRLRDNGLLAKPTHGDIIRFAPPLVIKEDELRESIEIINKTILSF
Experiment: stopped-flow transient-state kinetics, purified enzyme
Assay type: biochemical
Conditions: read-out: Dissociation constant (Kd)
Endpoint: pKd
One number for each entry, as −log10 of the molar value.

[Q] Please respond with reported pKd (system human ornithine aminotransferase (hOAT) (Homo sapiens, UniProt P04181)) for "NCCC[C@H](N)C(=O)O" .
[A] 2.33

Hello, the source for this data is paper PMC9136103, in case you need it.
